biological target: T1, hPD-L1mIg fusion protein (human, UniProt Q9NZQ7 19-238); test: SPR, Biacore T200; hPD-L1 mIg amine-coupled on CM5 chip, antibody injected at 1-32 nM, full kinetic analysis
T1 construct: also called hPD-L1 mIg protein; biotin-labeled hPD-L1-mouse Fc fusion protein; not shown: mouse Ig (Fc) part
T1 sequence (Q9NZQ7 19-238): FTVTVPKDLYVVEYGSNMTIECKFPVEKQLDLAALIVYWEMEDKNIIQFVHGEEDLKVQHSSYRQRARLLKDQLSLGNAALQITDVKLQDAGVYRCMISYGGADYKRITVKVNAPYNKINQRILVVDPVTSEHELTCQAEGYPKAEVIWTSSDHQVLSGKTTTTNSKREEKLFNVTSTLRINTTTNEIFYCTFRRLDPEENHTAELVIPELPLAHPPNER
Reported koff is given for each of the following binders.
# output: bare number, implied unit s⁻¹

QUERY: Look up koff for this binder: anti-PD-L1 HC1 + LC3 (antibody, V domains shown, Humanized antibody, Humanized VH 1 + Humanized VL 3; also called H1+L3; H13) VH: QVQLVQSGAEVKKPGASVKVSCKASGFNIKDTYMYWVRQAPGQGLEWMGRIDPANDNTKYAQKFQGRVTITADTSTSTAYMELSSLRSEDTAVYYCARAKNLLNYFDYWGQGTLVTVSS VL: DIQMTQSPSSLSASVGDRVTITCRASQEISGYLSWYQQKPGKAPKRLIYATSTLDSGVPSRFSGSRSGSDYTLTISSLQPEDFATYYCLQYAIYPLTFGQGTKLEIKR
RESULT: 0.00143

# context switch: different binder, same koff
QUERY: Look up koff for this binder: anti-PD-L1 HC3 + LC3 (antibody, V domains shown, Humanized antibody, Humanized VH3 + Humanized VL 3; also called H3+L3; H33) VH: EVQLVQSGAEVKKPGASVKVSCKASGFNIKDTYMYWVRQAPGQGLEWMGRIDPANDNTKYAQKFQGRVTITADTSTNTAYMELSSLRSEDTAVYYCARAKNLLNYFDYWGQGTLVTVSS VL: DIQMTQSPSSLSASVGDRVTITCRASQEISGYLSWYQQKPGKAPKRLIYATSTLDSGVPSRFSGSRSGSDYTLTISSLQPEDFATYYCLQYAIYPLTFGQGTKLEIKR
RESULT: 0.00146
